Reported expression level of LHX6 when the factor is removed by item:
Tested on: stage 2 neural stem cells
Experiment: Factor criticality analysis, stage 3 recipe
Type: cell-based, human
Conditions: other five stage 3 factors present; 240 with all six factors
Would you mind answering with just the numeric figure?

Some compounds with known expression level of LHX6 when the factor is removed results, for comparison:
>>> val("CCCn1/c(=N/C(=O)c2cccc(C(N)=O)c2)[nH]c2ccccc21")
170
>>> val("C[C@H](NC(=O)Cc1cc(F)cc(F)c1)C(=O)N[C@@H]1C(=O)N(C)c2ccccc2-c2ccccc21")
140
>>> val("Cc1ccc(NC(=O)Nc2cc(C(F)(F)F)ccc2F)cc1Nc1ccc2c(c1)NC(=O)/C2=C\\c1ccc[nH]1")
160

# next compound below
[ask] Please supply the value of reported expression level of LHX6 when the factor is removed for the item `c1ccc2c(Oc3nc(Nc4ccc(N5CCOCC5)cc4)c4ncn(C5CCCCC5)c4n3)cccc2c1`
[reply] 190

----------
Attribute: expression level of OTX2 when the factor is removed
System: human pluripotent stem cells
Assay: Factor criticality analysis, stage 1 recipe (dynamic profile analysis)
Type: cell-based
Conditions: other five stage 1 factors present; 5500 with all six factors; FIG. 11
Answer as a number with no unit attached.

Example results:
>>> val("Oc1nc(-c2ccc(C(F)(F)F)cc2)nc2c1CSCC2 [XAV939]")
5000
>>> val("c1ccc2c(-c3cnn4cc(-c5ccc(N6CCNCC6)cc5)cnc34)ccnc2c1 [LDN193189]")
4000

[ask] Answer with the recorded expression level of OTX2 when the factor is removed of c1ccc2c(Oc3nc(Nc4ccc(N5CCOCC5)cc4)c4ncn(C5CCCCC5)c4n3)cccc2c1 [Purmorphamine] only.
[reply] 6500

----------
Test system: human pluripotent stem cells
Experiment: Factor criticality analysis, stage 1 recipe (dynamic profile analysis)
Assay type: cell-based
Settings: other five stage 1 factors present; 2000 with all six factors; FIG. 11
metric-name: expression level of FEZF2 when the factor is removed

>>> val("c1ccc2c(Oc3nc(Nc4ccc(N5CCOCC5)cc4)c4ncn(C5CCCCC5)c4n3)cccc2c1 [Purmorphamine]")
1000
>>> val("c1ccc2c(-c3cnn4cc(-c5ccc(N6CCNCC6)cc5)cnc34)ccnc2c1 [LDN193189]")
1000
>>> val("O=C(NOC[C@H](O)CO)c1ccc(F)c(F)c1Nc1ccc(I)cc1F [PD0325901]")
"drop"
>>> val("Oc1nc(-c2ccc(C(F)(F)F)cc2)nc2c1CSCC2 [XAV939]")
1700

----------
Form field: factor contribution, expression of ASCL1 (one value per entry).
Test system: stage 2 neural stem cells
Assay: HD-DoE stage 3 experiment: ASCL1, LHX6, DLX1 expression
Format: cell-based, human
Conditions: positive; model optimized for maximum ASCL1 at 1700

Use these answered entries as a reference point.
>>> val("CCCn1/c(=N/C(=O)c2cccc(C(N)=O)c2)[nH]c2ccccc21")
10.1
>>> val("c1ccc2c(Oc3nc(Nc4ccc(N5CCOCC5)cc4)c4ncn(C5CCCCC5)c4n3)cccc2c1")
12.7

# context switch: different molecule, same factor contribution, expression of ASCL1
[ask] Please supply the value of reported factor contribution, expression of ASCL1 for the item `Cc1ccc(NC(=O)Nc2cc(C(F)(F)F)ccc2F)cc1Nc1ccc2c(c1)NC(=O)/C2=C\c1ccc[nH]1`
[reply] 9.4
